- TARGET DESC: H23
- TEST NAME: Caspase-3/7 activation assay
- Format: cell-based
- STATED CONDITIONS: caspase activation, Mcl-1-dependent cell line; read-out: NCI-H23, EC50
# key: entry, value: pEC50
# pEC50 is unitless: minus log10 of the molar concentration; print number only

Cc1c2c(nn1C)CSCc1cc(n(C)n1)CSc1cc(c3ccccc3c1)OCCCc1c(C(=O)O)n(C)c3c-2cccc13 [Compound 6] :: 5.24

API: the following record is the query input.
Recorded result, Cc1nn(C)c(COc2ccc(N3CCN(S(=O)(=O)N(C)C)CC3)cc2)c1-c1cccc2c(CCCOc3cccc4ccccc34)c(C(=O)O)n(CCN3CCOCC3)c12 [Compound 8, A-1210477, reference compound] , pEC50: 4.68
